System: PPARg:RXRa DBDmut IVT, anti-RXR (DBD mutation: RXRa K156A/R161A, NR concentration 270 nM, RXRa partner concentration 90 nM)
Test: PBM binding z-score (relative to random genomic background probes); higher = stronger binding; sequences stand for … in GC…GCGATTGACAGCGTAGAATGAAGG
Categorized via PBM binding z-score: class 0: < 1; class 1: ≥ 1 and < 3; class 2: ≥ 3

Ask: Kindly state the category for this sequence: CTCGAAAGGTCGTGCTCTGGTGAGTATACCAAAC
Reply: class 1

Ask: Kindly state the category for this sequence: TGTCAAAGTTCAAGGGTAACGTAAGTATCCACAC
Reply: class 0

Ask: Kindly state the category for this sequence: CCTTACGGGTCAAGATTATAGCACGGGTGGTACG
Reply: class 1

Ask: Kindly state the category for this sequence: CCTCGGCGGACAACAGGAGGTCAGAGCTGCCAGA
Reply: class 0

Ask: Kindly state the category for this sequence: GGAACAAGGGCATTCGAGTTGATAGCATGGCGAT
Reply: class 1

Ask: Kindly state the category for this sequence: CGTCAAAGTTCAATTAAGGTAACGTAAAGCACGC
Reply: class 0

Ask: Kindly state the category for this sequence: TCTCGGAGGACACGAAGGTTAGAGCTTTCCAGAG
Reply: class 0

Ask: Kindly state the category for this sequence: CGTGCAAGGTCAGCAGGTCAGTGAAAGCGACGTG
Reply: class 2

Ask: Kindly state the category for this sequence: TAACCAAGGTGAAGGTCGTTGATCCCTCTGTAGA
Reply: class 1

Ask: Kindly state the category for this sequence: TCTTGTAGATCAAAAGTTAAGAAAGCCGAAGCCT
Reply: class 1

Ask: Kindly state the category for this sequence: ACAGAAAGGTGAGTGAAGGTAACTCAGCTGGACG
Reply: class 1

Ask: Kindly state the category for this sequence: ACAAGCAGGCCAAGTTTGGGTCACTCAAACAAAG
Reply: class 0

Ask: Kindly state the category for this sequence: AATAAAGGGTCACTAGGCCAGAGTAGGTACGAAT
Reply: class 2

Ask: Kindly state the category for this sequence: CCAACTAGGTCACGAAAGGTCAAAGTCGAATGAC
Reply: class 2

Ask: Kindly state the category for this sequence: TCTGATAGGTCAACGATGGTCAGCTAATCTGCTA
Reply: class 2

Ask: Kindly state the category for this sequence: TGTCGGAGGACACGAAAGGTCAGAGCTCGACATC
Reply: class 0

Ask: Kindly state the category for this sequence: CCGACTGGGGCAAGGTTACCATGACGCACAGCCA
Reply: class 1

Ask: Kindly state the category for this sequence: TTAGCAAGGTGAGCTGAGGTCGTTGATCCAACTC
Reply: class 0

Ask: Kindly state the category for this sequence: TCATATAGGGAAATGCTAGGTGAAAGTCCGATCT
Reply: class 1

Ask: Kindly state the category for this sequence: AGTCAAAGTTAACTAGGTAACGTAAGATTCAGCT
Reply: class 2

Ask: Kindly state the category for this sequence: TCTTGTAGATCTATAGAGGTTAAGAAAGTGCGCT
Reply: class 1

Ask: Kindly state the category for this sequence: CAGCCTAGGTCATGGCCAGTATAGGAGGAACGTT
Reply: class 1

Ask: Kindly state the category for this sequence: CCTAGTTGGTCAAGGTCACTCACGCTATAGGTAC
Reply: class 1

Ask: Kindly state the category for this sequence: ACTATTAGTTGACTTCGGGCAACCGATACGACGC
Reply: class 0

Ask: Kindly state the category for this sequence: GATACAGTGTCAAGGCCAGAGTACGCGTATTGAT
Reply: class 0

Ask: Kindly state the category for this sequence: TCATATAGGTAAAAGGTGAAAGTAGGTGTGGTAA
Reply: class 2

Ask: Kindly state the category for this sequence: ACAGACAGGTGATGAAGGTAACTCCGGCTATCAT
Reply: class 0

Ask: Kindly state the category for this sequence: GCATATAGGTAATACAAGCTGAAAGTCCGATTGT
Reply: class 2

Ask: Kindly state the category for this sequence: CGAACGAGGGCATGAGTTGATAGGAAATGCCGAT
Reply: class 1

Ask: Kindly state the category for this sequence: CGTCCGAGGTCAGCAGGTCAGTGAAAGCGACGTG
Reply: class 2

Ask: Kindly state the category for this sequence: GCATATAGGTCATACAAGGTGAAAGTCCGATTGT
Reply: class 2
